- target.or.test.system: MAP kinase-interacting serine/threonine-protein kinase 1 (Homo sapiens)
- particulars: at 0.1 µM
- Description: GSK_PKIS: MKNK1 mean inhibition at 0.1 uM [Nanosyn]
Property: inhibition; scope: individual molecules
API: value field is a number in %; no unit string.

Here's what some known entries look like.
{"columns": ["sample.smiles", "inhibition (%)"],
 "data": [
  ["COc1ccc(-c2oc3ncnc(N)c3c2-c2ccc(NC(=O)Nc3cc(C(F)(F)F)ccc3F)cc2)cc1", 9.84],
  ["Fc1ccc(-c2nn3ncccc3c2-c2ccnc(Nc3ccc4c(c3)OCCO4)n2)cc1", 3.01]
]}

// assay MAP kinase-interacting serine/threonine-protein kinase 1 (Homo sapiens), entry c1ccc(COc2ccc(Nc3ncnc4ccc(-c5ccco5)cc34)cc2)cc1 , inhibition value = 1.35

FYI, the data here is from ChEMBL document CHEMBL1961873.
